Taken from patent US20230235012A1.

measured-target: T1, human CD28, full-length, expressed on transfected Expi293 cells (human, UniProt P10747 19-220)
T1 construct: whole, on cells
test-details: flow cytometry, 100 nM, Expi293 cells with human CD28
For each record, write down the corresponding MFI ratio to WT (ΔWT).
Hi! Could you send only the number? It should be in fold, unit omitted.

Exercise: Note down MFI ratio to WT (ΔWT) recorded for variant ICOSL IgV-Fc fusion N52S/N57Y/Q100V (Fc fusion) DTQEKEVRAMVGSDVELSCACPEGSRFDLNDVYVYWQTSESKTVVTYHIPQSSSLEYVDSRYRNRALMSPAGMLRGDFSLRLFNVTPQDEQKFHCLVLSVSLGFQEVLSVEVTLHVAANFSVGSGGGGSEPKSSDKTHTCPPCPAPEAEGAPSVFLFPPKPKDTLMISRTPEVTCVVVDVSHEDPEVKFNWYVDGVEVHNAKTKPREEQYNSTYRVVSVLTVLHQDWLNGKEYKCKVSNKALPAPIEKTISKAKGQPREPQVYTLPPSREEMTKNQVSLTCLVKGFYPSDIAVEWESNGQPENNYKTTPPVLDSDGSFFLYSKLTVDKSRWQQGNVFSCSVMHEALHNHYTQKSLSLSPG
Key: 5.7

Exercise: Note down MFI ratio to WT (ΔWT) recorded for variant ICOSL IgV-Fc fusion N52M/N57W/Q100P (Fc fusion) DTQEKEVRAMVGSDVELSCACPEGSRFDLNDVYVYWQTSESKTVVTYHIPQMSSLEWVDSRYRNRALMSPAGMLRGDFSLRLFNVTPQDEQKFHCLVLSPSLGFQEVLSVEVTLHVAANFSVGSGGGGSEPKSSDKTHTCPPCPAPEAEGAPSVFLFPPKPKDTLMISRTPEVTCVVVDVSHEDPEVKFNWYVDGVEVHNAKTKPREEQYNSTYRVVSVLTVLHQDWLNGKEYKCKVSNKALPAPIEKTISKAKGQPREPQVYTLPPSREEMTKNQVSLTCLVKGFYPSDIAVEWESNGQPENNYKTTPPVLDSDGSFFLYSKLTVDKSRWQQGNVFSCSVMHEALHNHYTQKSLSLSPG
Key: 7.5
